Target: endogenous autotaxin (Homo sapiens)
Construct: The increased endogenous LPC levels are cleaved by endogenous autotaxin; tissue Lampire Biologicals
Test: Reduction of LPA in the Presence of Human Plasma
Conditions: 90% pooled human plasma, 3 hours at 37° C., total LPA by mass spec; arithmetic mean
Procedure: The following assay is intended to measure the reduction of LPA. […] Units of plasma from healthy human female donors collected in sodium heparin (Lampire Biologicals) are pooled, aliquoted and stored at −80° C. […] A 400 μl aliquot of extraction buffer (50% methanol, 49.9% acetonitrile, 0.1% acetic acid) containing LPA internal standards (50 ng/ml D5 deuterium LPA 16:0 and 50 ng/ml D5 deuterium LPA 18:0) is added to each well and the total LPA in each sample is determined by mass spec analysis. […]
readout name: IC50 (nM)
Field format: number, assumed nM, no unit text.

INSERT INTO measurements (compound, observed_result) VALUES
  ('O=C(OCC1Cn2ccnc2CO1)N1Cc2cnc(NC3Cc4ccccc4C3)nc2C1 (single isomer, unassigned; isomer 2) [Example 8]', 12.9);

Could you now look at the following compound, please?
[ask] Indicate the recorded IC50 value for this compound: O=C(OCC1CCc2nccn2C1)N1Cc2cnc(NC3Cc4ccccc4C3)nc2C1 (single isomer, unassigned; isomer 2) [Example 3]
[reply] 2.22
